Values from PubChem BioAssay AID330

Documented T/C across a set of compounds
Test system: P388 leukemia ip, CD2F1 mice, survival T/C
assay: NCI In Vivo Anticancer Drug Screen. Data for tumor model P388 Leukemia (intraperitoneal) in CD2F1 (CDF1) mice
run-conditions: endpoint: median survival time; dose: 100.0 mg/kg/injection; schedule: Q01DX009 (ip); vehicle: saline with Tween-80; higher = longer survival
Toxic doses and inconclusive results are not listed.

Example compounds with recorded T/C:
compound | endpoint | val
CCCCC1CC=CC(NC#N)=N1 (stereo unspecified) | T/C | 104 % of control
OCC1OC(n2nc(Cl)c3ccccc32)C(O)C1O (stereo unspecified) | T/C | 91 % of control
CCSC(=O)c1cc(C(=O)SCC)cc(C(C)(C)C)c1 | T/C | 114 % of control
C/C=C(/C)c1cccc(OCc2ccccc2)c1OCc1ccccc1 | T/C | 90 % of control
Cc1ccc(N)c(N)c1 | T/C | 99 % of control

// next item, T/C requested
Exercise: Which T/C is reported for this compound? Nc1nc(N)nc(NC(=O)COc2cc(Cl)c(Cl)cc2Cl)n1
Key: 95 % of control
